These entries and their values trace back to the nanobody polyreactivity screen of Harvey et al. (2022).

# Experimental details: yeast display, Sf9 membrane polyspecificity reagent, FACS + sequencing; frameworks hold sequencing errors
Readout: polyreactivity (PSR sort gate)

[
  {
    "Sequence data": "QVQLVESGGGVVQAGGSLRLSCAASGSIIWWYAMGWYRQAPGKERELVARMNKRSGSTYYADSVKGRFTISRDNAKNTVYLLRNSLKPEDTAVYYCAATWRSSGIAFFYWGQGTQVTLSS",
    "Readout": "polyreactivity (PSR sort gate)",
    "Observed": "high polyreactivity"
  },
  {
    "Sequence data": "QVQLVESRGGLVQAGGSLRLSCAASGSIFDVNAMGWYRQAPGKERELVAAISQRGTRTYYADSVKGRFTISRDNAKNTVYLQMNSLKPEDTAVYYCNRGGWREYDSWGQGTQVTVSS",
    "Readout": "polyreactivity (PSR sort gate)",
    "Observed": "high polyreactivity"
  }
]
